MEASUREMENT_NAME: melting point

- COMPOUND: "OCC(O)COCc1nnc2n1-c1ccc(Cl)cc1C(c1ccccc1)=NC2 (stereo not given)"
  MEASUREMENT_NAME: "melting point"
  MEASURED_VALUE: "130 to 134 °C"
- COMPOUND: "CCOC(=O)C(Oc1cccc2[nH]ccc12)C(=O)OCC"
  MEASUREMENT_NAME: "melting point"
  MEASURED_VALUE: "52 to 53 °C"

What value of melting point has been reported for the following compound? COC(NC(C)=O)(C(=O)OC(C)(C)C)C(Br)Br (stereo not given) 115 to 116 °C

Also "Cn1cc(C2CCC3(CC2)OCCO3)c2cc(C#N)ccc21" , if possible. 170 to 172 °C

Also CC(=O)OC1(C(C)=O)CCC2C3C=C(Cl)C4=CC(=O)OC(O)C4(C)C3CCC21C (stereo not given) , if possible. 276 to 278 °C

Also "Cn1c(=O)cc(-c2cccc(Cl)c2)c2cc(C(=O)c3ccc([N+](=O)[O-])cc3)ccc21" , if possible. 174 °C

###

MEASUREMENT_NAME: melting point

The examples below pair each entry with its known result.
- COMPOUND: "Cc1nc(NC(=O)c2ccccc2)sc1C(=O)NCC1CC1"
  melting point: "163 to 166 °C"
- COMPOUND: "O=C(O)Cc1nn(C/C=C/c2cccc(C(F)(F)F)c2F)c(=O)c2ccccc12"
  melting point: "170 to 172 °C"
- COMPOUND: "CC1C=CC(Oc2ccc(C(=O)O)o2)=C2N=C3CCCCC3=C21 (configuration not stated)"
  melting point: "150 to 152 °C"
- COMPOUND: "CC(=O)Nc1ccc(-c2cc(C(=O)c3ccc(Cl)cc3)sc2N2CCOCC2)cc1"
  melting point: "120 °C"
- COMPOUND: "CCOC(=O)c1cn(C)c2c(OCC)csc2c1=O"
  melting point: "198 to 200 °C"
- COMPOUND: "O=C(Nc1ccc(-n2nc(C(F)(F)F)cc2C(F)(F)F)cc1)c1ccoc1"
  melting point: "206 to 207 °C"
- COMPOUND: "CCOC(=O)COc1ccc(C=CC(=O)O)cc1"
  melting point: "154 °C"
- COMPOUND: "CCCCCCn1c2ccc(C)cc2c(=O)c2c1cnn2C"
  melting point: "80 to 82 °C"

What value of melting point has been reported for the following compound? "Nc1c(-c2ccc(O)cc2)nnn1-c1ccc(C(F)(F)F)cc1Cl" 161 to 162 °C

Also "CC(=O)CC[C@H](NC(=O)OCc1ccccc1)C(N)=O" , if possible. 142 to 144 °C

Also "CC(C)=NNc1cnn(-c2cccc(C(F)(F)F)c2)c(=O)c1" , if possible. 255 to 257 °C

Also CCCCN(C=Nc1nnnc2c1ncn2C1CC(O)C(CO)O1)CCCC (configuration not stated) , if possible. 107 to 109 °C

Also "CCc1ncc(CCCOc2c(C)cc(-c3noc(C(F)F)n3)cc2C)s1" , if possible. 68 to 70 °C

Also "c1ccc(C2(c3ccccc3)CCNCCO2)cc1" , if possible. 72 to 75 °C

Also "NC(=O)[C@H](Cc1cccnc1)NC(=O)OCc1ccccc1" , if possible. 153 °C

###

# melting point per entry

- COMPOUND: "CN(C(=O)c1ccc2nonc2c1)C1CCOC(O)C1 (stereo unspecified)"
  melting point: "< 90 °C"

What value of melting point has been reported for the following compound? "Cc1cn2c(nc1=O)CCCCC2" 202 °C

Also "O=c1c(-c2ccccc2)cc(Cl)c2n1C=CSc1ccsc1-2" , if possible. 149 to 151 °C

Also "C[C@H]1C(=O)Nc2c(N)cc(Cl)cc2N1C(=O)OCc1ccccc1" , if possible. 152 to 154 °C

Also "COC(=O)C=Cc1ccc(C(=O)O)s1" , if possible. 156 °C

Also CCCCCC(O)CCCN(CCCCCCC(=O)O)C(N)=O (stereo unspecified) , if possible. 75 to 76 °C

###

MEASUREMENT_NAME: melting point

- COMPOUND: "CC(C)C(C)(C(N)=O)N1C(=O)c2ccc3ccn(C)c3c2C1=O (stereo not given)"
  MEASUREMENT_NAME: "melting point"
  MEASURED_VALUE: "184 to 189 °C"
- COMPOUND: "Cc1cc(-c2ccc(C(F)(F)F)cc2)nc(-c2ccnc(-c3cccc(S(N)(=O)=O)c3)n2)c1"
  MEASUREMENT_NAME: "melting point"
  MEASURED_VALUE: "> 250 °C"
- COMPOUND: "CC(=O)NCC1CCC(C(=O)N2CC2C#N)CC1 (stereo not given)"
  MEASUREMENT_NAME: "melting point"
  MEASURED_VALUE: "92 to 94 °C"
- COMPOUND: "NS(=O)(=O)c1cccc(C(=O)Cl)c1"
  MEASUREMENT_NAME: "melting point"
  MEASURED_VALUE: "123 °C"

Please find the next compound below.
What value of melting point has been reported for the following compound? "CSc1nn2c(N3CCN(C)CC3)cc(C)nc2c1S(=O)(=O)c1cccnc1" 188 to 189 °C

###

# melting point per entry

- COMPOUND: "O=C(O)[C@H](Cc1ccc(O)cc1)NC(=O)C1(NC(=O)C2(S)CCCC2)CCCC1"
  melting point: "90 °C"
- COMPOUND: "O=C1Cc2ccccc2N1Nc1ccncc1F"
  melting point: "181 to 183 °C"
- COMPOUND: "COC(=O)c1cc([N+](=O)[O-])c(Cl)c([N+](=O)[O-])c1"
  melting point: "104 to 106 °C"
- COMPOUND: "CCOc1cc(NC(=S)NS(=O)(=O)c2ccc(C)cc2)ccn1"
  melting point: "152 to 153 °C"
- COMPOUND: "COC(=O)c1cncn1C1CCCc2ccccc21 (stereo unspecified)"
  melting point: "63 °C"

What value of melting point has been reported for the following compound? "CCc1cc(Cl)c(NN)c(Cl)c1" 48 to 50 °C

###

# melting point per entry

What value of melting point has been reported for the following molecule? "COc1ccc(-c2c[nH]c3cc(OC)c(OC)cc3c2=O)cc1" 310 to 311 °C

Also "O=C(O)c1ccccc1Sc1ccc(Cl)c(F)c1" , if possible. 231 to 232 °C

Also "Nc1cc(CCC(=O)Nc2ccc(Cl)cc2Cl)ccc1O" , if possible. 130 to 131 °C

Also "CCN(CC)c1c(C(=O)O)n(-c2ccccc2)c2ccc(OC)cc12" , if possible. 141 to 143 °C

Also COCC1CN(c2ccc(C3CCCCC3)c([N+](=O)[O-])c2)C(=O)O1 (racemic) , if possible. 105 to 106 °C

###

# melting point per entry

- COMPOUND: "CC(C)(C)OC(=O)NCc1cccc(C(=O)N[C@H]2C[C@H](C(=O)O)Nc3cc(Cl)cc(Cl)c32)c1 (relative stereo)"
  melting point: "192 to 193 °C"
- COMPOUND: "CN(C)CCNC(=O)Cn1c(-c2ccc(Cl)cc2)nc2cccnc21"
  melting point: "195 to 196 °C"

What value of melting point has been reported for the following compound? "Nc1ccc(Sc2ccccc2)cc1Br" 61 to 63 °C

Also "CC(C)(Br)C(=O)ON1C(=O)CCC1=O" , if possible. 72 to 74 °C

Also O=C(/C=C/c1ccc(C(=O)O)s1)NOC1CCCCO1 (stereo not given) , if possible. 177 °C

Also "Cc1ccccc1SN(C(=O)NC(=O)c1ccccc1Cl)c1ccc(OC(F)(F)F)cc1" , if possible. 79 to 80 °C

Also "COc1ccc(CNc2nnc(NCCCO)c3ccc(Cl)cc23)cc1Cl" , if possible. 131 to 138 °C

Also "Cc1nc(N2CCN(Cc3ccc(C(F)(F)F)o3)C2=O)sc1C(=O)NCc1ccccc1" , if possible. 143 to 145 °C

Also CCN(CC)CC1CCCCN1CCNC(=O)N1c2ccccc2C(=O)Nc2cccnc21 (stereo not given) , if possible. 175 to 176 °C

Also "COc1cccc(-c2ccc3ccccc3c2Oc2ccc(C=O)cc2)c1" , if possible. 125 to 126 °C

###

# melting point per entry
Report as a plain number; the unit °C is understood.

The examples below pair each entry with its known result.
- GIVEN_SMILES: "FC(F)(F)c1cc(-c2ccc(Br)cc2)nc2c(-c3ccncc3)cnn12"
  UNITS_LABEL: "°C"
  melting point: 289
- GIVEN_SMILES: "COc1ccc(Oc2ccc(C(=O)N(C3CCCC3)C3CCCC3)cc2)cc1OC"
  UNITS_LABEL: "°C"
  melting point: 180

Please find the next molecule below.
What value of melting point has been reported for the following molecule? "COc1cc(N)ccc1OC[C@H](O)C1CC1" 71
